Origin of the recorded values: paper PMC8807399

test: Artificial membrane permeability assay; type: in vitro ADME; details: PAMPA, read-out: Permeability Pe
value type: Papp (×10⁻⁶ cm/s)

substance_smiles=O=C(COc1ccc(OC(F)(F)F)cc1)N1C[C@@H]2CN(C(=O)c3ccc4[nH]nnc4c3)C[C@H]2C1 value_type=Papp value_reported=1.8
substance_smiles=O=C(CCc1ccc(OC(F)(F)F)cc1)N1C[C@@H]2CN(C(=O)c3ccc4[nH]nnc4c3)C[C@H]2C1 value_type=Papp value_reported=2.7
substance_smiles=O=C(OCc1ccc(OC(F)(F)F)cc1)N1C[C@@H]2CN(C(=O)c3ccc4[nH]nnc4c3)C[C@H]2C1 value_type=Papp value_reported=4.5
substance_smiles=CS(=O)(=O)c1cc(Cl)cc(COC(=O)N2C[C@@H]3CN(C(=O)c4ccc5[nH]nnc5c4)C[C@H]3C2)c1 value_type=Papp value_reported=0.4

* * *

experiment: Single dose PK in rats; type: in vivo; conditions: plasma; rat, oral gavage, 10 mg/kg
value type: AUC(0-inf) (µg·h/mL)

substance_smiles=O=C(OCc1ccc(OC(F)(F)F)cc1)N1C[C@@H]2CN(C(=O)c3ccc4[nH]nnc4c3)C[C@H]2C1 unit_string=µg·h/mL value_reported=130

* * *

assay: HT-solubility assay; format: physicochemical; conditions: aqueous buffer, thermodynamic from solid; phosphate buffer pH 6.5
Reported values of solubility for individual entries
value type: solubility

compound="O=C(OCc1cc(Cl)cc(Cl)c1)N1CC[C@@H]2CN(C(=O)c3ccc4[nH]c(=O)oc4c3)C[C@H]2C1 (relative stereo) [Compound 2]" value_type=solubility value_reported="< 1 µg/mL"
compound="O=C(OCc1cc(Cl)cc(Cl)c1)N1CCC2(CC1)CN(C(=O)c1ccc3[nH]c(=O)oc3c1)C2 [Compound 4]" value_type=solubility value_reported="< 1 µg/mL"
compound="O=C(/C=C/c1ccc(OC(F)(F)F)cc1)N1C[C@@H]2CN(C(=O)c3ccc4[nH]nnc4c3)C[C@H]2C1 [Compound 11]" value_type=solubility value_reported="< 1 µg/mL"
compound="O=C(CCN1CCN(C(=O)OCc2cc(Cl)cc(Cl)c2)CC1)c1ccc2[nH]c(=O)oc2c1 [Compound 1, reference compound]" value_type=solubility value_reported="< 1 µg/mL"
compound="O=C(OCc1cc(Cl)cc(Cl)c1)N1CC2(CCN(C(=O)c3ccc4[nH]c(=O)oc4c3)CC2)C1 [Compound 3]" value_type=solubility value_reported="< 1 µg/mL"
